The measured values listed here are drawn from patent US4834964A.

test: Stability/pharmacokinetics of nitroxide in the CSF of dogs (nitroxide concentration); type: in vivo; conditions: 20 umol/animal, dog, 150 min after 2 ml of 10 mM into spinal cavity, average of 4 studies
reported_property: concentration at 2.5 h (µM)
Answer with a number only, understood to be in µM.

# concentration at 2.5 h (molecule: CC[N+](C)(C)C1CC(C)(C)N([O])C(C)(C)C1 ) is 30

* * *

assay: Stability/pharmacokinetics of nitroxide in the CSF of dogs (nitroxide concentration); type: in vivo; details: 20 umol/animal, dog, 10 min after 2 ml of 10 mM into spinal cavity, average of 4 studies
reported_property: concentration at 10 min (µM)
Answer with a number only, understood to be in µM.

# concentration at 10 min (compound: CC[N+](C)(C)C1CC(C)(C)N([O])C(C)(C)C1 ) is 3300
